Quick list: pIC50 per entry.
target: T1, human PD-L1 (human, UniProt Q9NZQ7 19-239, limits assumed); experiment: cell binding assay, inhibition of Hu PD-L1/PD-1 binding
T1 construct: also called Hu PD-L1; hPD-L1
T1 sequence (Q9NZQ7 19-239 limits assumed): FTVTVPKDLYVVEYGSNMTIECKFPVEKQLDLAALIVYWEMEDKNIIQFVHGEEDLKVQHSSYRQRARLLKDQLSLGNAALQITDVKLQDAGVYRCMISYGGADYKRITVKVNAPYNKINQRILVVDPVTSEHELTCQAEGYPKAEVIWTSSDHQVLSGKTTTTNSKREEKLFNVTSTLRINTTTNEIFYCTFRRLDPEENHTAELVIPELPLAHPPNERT
Positions of bridges follow the written chain, without caps; N, C: chain ends. Non-standard residues stand in square brackets, D forms with d. Phe(4-tBu) = CC(C)(C)c1ccc(C[C@H](N)C(=O)O)cc1; 3Pal = N[C@@H](Cc1cccnc1)C(=O)O; NMeNle = CCCC[C@H](NC)C(=O)O; NMeA = CN[C@@H](C)C(=O)O; Sar = CNCC(=O)O
In plain terms, pIC50 is the concentration in mol/L turned into minus its base-10 logarithm.

Known pIC50 results, listed for orientation:
{CH2CO}-[3Pal][NMeA]NPHL[Sar]WSW[NMeNle][NMeNle]RCG-NH2 (thioether N-14; SMILES CCCC[C@H]1C(=O)N(C)[C@@H](CCCC)C(=O)N[C@@H](CCCNC(=N)N)C(=O)N[C@H](C(=O)NCC(N)=O)CSCC(=O)N[C@@H](Cc2cccnc2)C(=O)N(C)[C@@H](C)C(=O)N[C@@H](CC(N)=O)C(=O)N2CCC[C@H]2C(=O)N[C@@H](Cc2c[nH]cn2)C(=O)N[C@@H](CC(C)C)C(=O)N(C)CC(=O)N[C@@H](Cc2c[nH]c3ccccc23)C(=O)N[C@@H](CO)C(=O)N[C@@H](Cc2c[nH]c3ccccc23)C(=O)N1C, macrocyclic peptide, Formula I series; also called Compound 38) [Compound No. 38] ... 6.43
{CH2CO}-F[NMeA]NPHD[Sar]WSW[NMeNle][NMeNle]RCG-NH2 (thioether N-14; SMILES CCCC[C@H]1C(=O)N(C)[C@@H](CCCC)C(=O)N[C@@H](CCCNC(=N)N)C(=O)N[C@H](C(=O)NCC(N)=O)CSCC(=O)N[C@@H](Cc2ccccc2)C(=O)N(C)[C@@H](C)C(=O)N[C@@H](CC(N)=O)C(=O)N2CCC[C@H]2C(=O)N[C@@H](Cc2c[nH]cn2)C(=O)N[C@@H](CC(=O)O)C(=O)N(C)CC(=O)N[C@@H](Cc2c[nH]c3ccccc23)C(=O)N[C@@H](CO)C(=O)N[C@@H](Cc2c[nH]c3ccccc23)C(=O)N1C, macrocyclic peptide, Formula I series; also called Compound 51) [Compound No. 51] ... 6.93
{CH2CO}-[Phe(4-tBu)][NMeA]NPHL[Sar]WSW[NMeNle][NMeNle]RCG-NH2 (thioether N-14; SMILES CCCC[C@H]1C(=O)N(C)[C@@H](CCCC)C(=O)N[C@@H](CCCNC(=N)N)C(=O)N[C@H](C(=O)NCC(N)=O)CSCC(=O)N[C@@H](Cc2ccc(C(C)(C)C)cc2)C(=O)N(C)[C@@H](C)C(=O)N[C@@H](CC(N)=O)C(=O)N2CCC[C@H]2C(=O)N[C@@H](Cc2c[nH]cn2)C(=O)N[C@@H](CC(C)C)C(=O)N(C)CC(=O)N[C@@H](Cc2c[nH]c3ccccc23)C(=O)N[C@@H](CO)C(=O)N[C@@H](Cc2c[nH]c3ccccc23)C(=O)N1C, macrocyclic peptide, Formula I series; also called Compound 37) [Compound No. 37] ... 5.60

Consider the record given below.
pIC50 in this record for {CH2CO}-F[NMeA]NPHLPWSW[NMeNle][NMeNle]RCG-NH2 (thioether N-14; SMILES CCCC[C@H]1C(=O)N(C)[C@@H](CCCC)C(=O)N[C@@H](CCCNC(=N)N)C(=O)N[C@H](C(=O)NCC(N)=O)CSCC(=O)N[C@@H](Cc2ccccc2)C(=O)N(C)[C@@H](C)C(=O)N[C@@H](CC(N)=O)C(=O)N2CCC[C@H]2C(=O)N[C@@H](Cc2c[nH]cn2)C(=O)N[C@@H](CC(C)C)C(=O)N2CCC[C@H]2C(=O)N[C@@H](Cc2c[nH]c3ccccc23)C(=O)N[C@@H](CO)C(=O)N[C@@H](Cc2c[nH]c3ccccc23)C(=O)N1C, macrocyclic peptide, Formula I series; also called Compound 55) [Compound No. 55] : 8.52

The reported measurements were obtained from patent US20140294898A1.
